# test.system: UniProt:P08909
# Sequence (P08909 whole entry): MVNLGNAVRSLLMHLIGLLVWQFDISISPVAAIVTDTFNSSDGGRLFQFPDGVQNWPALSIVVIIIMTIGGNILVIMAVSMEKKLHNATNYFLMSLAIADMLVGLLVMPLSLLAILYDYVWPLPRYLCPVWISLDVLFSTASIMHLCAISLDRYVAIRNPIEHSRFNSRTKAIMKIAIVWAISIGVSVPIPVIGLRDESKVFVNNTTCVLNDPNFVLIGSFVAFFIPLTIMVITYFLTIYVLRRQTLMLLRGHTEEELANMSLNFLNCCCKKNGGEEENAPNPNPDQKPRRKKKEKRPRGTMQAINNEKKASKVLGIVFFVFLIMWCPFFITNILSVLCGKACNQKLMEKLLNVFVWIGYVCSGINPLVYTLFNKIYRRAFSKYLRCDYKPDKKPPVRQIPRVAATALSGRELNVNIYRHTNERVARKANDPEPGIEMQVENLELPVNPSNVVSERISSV
Would you mind telling me the reported pKi of each entry?
Give bare numbers, as −log10 of the molar value.

Sample records with pKi:
{"compound": "O=C(CCCN1CCC(Cc2ccccc2)CC1)c1ccc(F)cc1", "observed.property": "pKi", "recorded.measurement": 5.78}
{"compound": "O=C1NCN(c2ccccc2)C12CCN(CCCCc1ccc(F)cc1)CC2", "observed.property": "pKi", "recorded.measurement": 5.49}

// below: pKi requested for another compound
Input line: For O=C1NCN(c2ccccc2)C12CCN(CCCOc1ccc(F)cc1)CC2 [SPIRAMIDE] , what is its reported pKi?
Output line: 5.37
